Where do the numbers come from? From ChEMBL document CHEMBL1124832.

# tgt: Muscarinic acetylcholine receptor M3 (Homo sapiens)
# experimental_details: Percent increase in [3H]myo-inositol at muscarinic acetylcholine receptor M3 from SK-N-SH human neuroblastoma cells
# Format: cell-based
# Design: concentration or dose not given beside the values
Field: Activity. Provide a value for each of the compounds that follow.
Answers are plain numbers, in %.

Below are worked cases with known answers.
-- ask Provide Activity value for the following compound: CN(CC#CCN1CCCC1)C(=O)c1cccc(Cl)c1
-- reply 4

-- ask Query Activity for CN(CC#CCN1CCCC1)C(=O)CCCNC(=O)CCN
-- reply 7

-- ask Identify measured Activity corresponding to CC(=O)NCCCCCC(=O)N(C)CC#CCN1CCCC1
-- reply 1

-- ask Name the recorded Activity of the item CN(CC#CCN1CCCC1)C(=O)CCCCNC(=O)OC(C)(C)C in your answer.
-- reply 1

# batch: return Activity for each of the 4 compounds below
1. CC(=O)N(C)CC#CCN1CCCC1
2. CN(CC#CCN1CCCC1)C(=O)c1ccccc1
3. CC(=O)NCC(=O)N(C)CC#CCN1CCCC1
4. CN(CC#CCN1CCCC1)C(=O)CCCCCNC(=O)CNC(=O)OC(C)(C)C

-- reply
1: 48; 2: 8; 3: 8; 4: 3

Each compound below has a recorded value; state its Activity.
1. CC(=O)NCCCC(=O)N(C)CC#CCN1CCCC1
2. C[N+](C)(C)CC#CCN1CCCC1=O

-- reply
[14, 100]
